These data points were gathered from patent US20150148311A1.

# Protocol Text: Compound plasma concentration, LC-MS/MS, 8 h post dose
# Format: in vivo
# Experimental Context: male, C57BL/6, mouse, mice, 30 mg/kg, plasma, read-out: Mean Example Plasma Concentration
Assay Readout: concentration at 8 h (ng/mL)

(a) O=C(O)CN(CCCCCc1cc(Cl)c(CN2CSC[C@H]2C(=O)N2CCN(C3CC3)c3ccccc32)cc1Cl)CC(=O)O [Example 276]
(b) O=C([C@@H]1CSCN1Cc1cc(Cl)cc(O)c1Cl)N1CCN(C2CC2)c2ccccc21 [Example 169]
Would you let me know which has the greater concentration at 8 h value, a or b ? Provide the label of your selected option as the answer.
a
(a: 7.6 ng/mL, b: 2.1 ng/mL)

---

# Tested On: human TGR5 (Homo sapiens)
# Construct: expressed in transfected cells
# Protocol Text: Cell-based TGR5 assay, HEK293 cells stably expressing human TGR5, cAMP by HTRF
# Experimental Context: HEK293 cells stably expressing human TGR5, 30 min at 37 C, 0.05 nM to 10 μM, read-out: pEC50 Human TGR5 (converted)
Assay Readout: EC50

Notebook entry, human TGR5 (Homo sapiens) assay: EC50 of `CN(CCO)c1nc(NCCCCCc2cc(Cl)c(CN3CSC[C@H]3C(=O)N3CCN(C4CC4)c4ccccc43)cc2Cl)cc(C(=O)NC[C@H](O)[C@@H](O)[C@H](O)[C@H](O)CO)n1` = ?
< 100 nM

---

Reported EC50 values follow for various molecules
# Tested On: human TGR5 (Homo sapiens, UniProt Q8TDU6)
# Construct: expressed in transfected cells
# Sequence (Q8TDU6 1-330): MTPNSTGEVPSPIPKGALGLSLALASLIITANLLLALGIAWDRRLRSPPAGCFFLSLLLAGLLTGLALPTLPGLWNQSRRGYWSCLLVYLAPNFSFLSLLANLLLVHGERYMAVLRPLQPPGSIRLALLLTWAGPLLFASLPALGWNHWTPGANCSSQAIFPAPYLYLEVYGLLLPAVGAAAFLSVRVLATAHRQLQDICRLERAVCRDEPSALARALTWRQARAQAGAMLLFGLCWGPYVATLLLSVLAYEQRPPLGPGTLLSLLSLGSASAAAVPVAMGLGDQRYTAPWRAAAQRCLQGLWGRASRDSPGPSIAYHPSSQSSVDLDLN
# Protocol Text: Cell-based TGR5 assay, HEK293 cells stably expressing human TGR5, cAMP by HTRF
# Experimental Context: HEK293 cells stably expressing human TGR5, 30 min at 37 C, 0.05 nM to 10 μM, read-out: pEC50 Human TGR5 (converted)

Example cases with answers are listed next.
1) O=C(CCCCc1cc(Cl)c(COC2(C(=O)N3CCN(C4CC4)c4ccccc43)CC2)cc1Cl)NC[C@H](O)[C@@H](O)[C@H](O)[C@H](O)CO [Example 193]	< 100 nM
2) O=C([C@@H]1CCCN1Cc1cc(Cl)ccc1C(F)(F)F)N1CCN(C2CC2)c2ccccc21 [Example 46]	< 100 nM
3) CC(C(=O)N1CCN(C2CC2)c2ccccc21)N1CCc2ccc(Cl)cc2C1 (stereo not drawn) [Example 244]	1260 to 50100 nM
4) CC(c1cc(Cl)ccc1Cl)N1CCC[C@H]1C(=O)N1CCN(C2CC2)c2ccccc21 (single isomer, unassigned) [Example 67]	1260 to 50100 nM
5) CC(=O)N1CC(OCc2cc(Cl)ccc2Cl)(C(=O)N2CCN(C3CC3)c3ccccc32)C1 [Example 54]	126 to 1000 nM
6) CN(C[C@H](O)[C@@H](O)[C@H](O)[C@H](O)CO)C(=O)CCCCc1ccc(Cl)c(CNC2(C(=O)N3CCN(C4CC4)c4ccccc43)CC2)c1 [Example 260]	126 to 1000 nM
7) O=C(CCc1cc(Cl)c(CNC2(C(=O)N3CCN(C4CC4)c4ccccc43)CC2)cc1Cl)NCCOCCOCCNC(=O)CCc1cc(Cl)c(CNC2(C(=O)N3CCN(C4CC4)c4ccccc43)CC2)cc1Cl [Example 95]	< 100 nM
8) O=C(N1CCN(C2CC2)c2ccccc21)C1(OCc2cc(Cl)ccc2Cl)CCOCC1 [Example 79]	126 to 1000 nM

Returns the measured EC50 for the input molecule. Input: CN(C[C@H](O)[C@@H](O)[C@H](O)[C@H](O)CO)C(=O)NCCCc1cc(Cl)c(CNC2(C(=O)N3CCN(C4CC4)c4ccccc43)CC2)cc1Cl [Example 93]
126 to 1000 nM

What does the data say about its EC50? Entry: CN(C[C@H](O)[C@@H](O)[C@H](O)[C@H](O)CO)C(=O)CCCCc1ccc(C(F)(F)F)c(CNC2(C(=O)N3CCN(C4CC4)c4ccccc43)CC2)c1 [Example 172]
1260 to 50100 nM

// query EC50 value for entry O=C(NC[C@@H](O)[C@H](O)[C@@H](O)[C@@H](O)CO)C(CCCc1cc(Cl)c(CN2CSC[C@H]2C(=O)N2CCN(C3CC3)c3ccccc32)cc1Cl)C(=O)NC[C@@H](O)[C@H](O)[C@@H](O)[C@@H](O)CO [Example 174]
1260 to 50100 nM

Recorded EC50 of CN(C[C@H](O)[C@@H](O)[C@@H](O)[C@H](O)CO)C(=O)CCc1ccc(Cl)c(CNC2(C(=O)N3CCN(C4CC4)c4ccccc43)CC2)c1 [Example 71] , please.
126 to 1000 nM
